// reported combination Emax for each item listed
- Test system: LS-180 (Colorectal Carcinoma)
- assay.explanation: combination Emax (second highest fraction inhibited in the dose matrix, 72 h); higher = more inhibition; extreme values may be limits of the assay
Field format: numeric only.

compound	combination Emax
O=C(c1cc(Cc2n[nH]c(=O)c3ccccc23)ccc1F)N1CCN(C(=O)C2CC2)CC1 [Olaparib] + CC1(C)CCC(CN2CCN(c3ccc(C(=O)NS(=O)(=O)c4ccc(NCC5CCOCC5)c([N+](=O)[O-])c4)c(Oc4cnc5[nH]ccc5c4)c3)CC2)=C(c2ccc(Cl)cc2)C1 [Venetoclax] (first compound max 10 µM, 7x7, partner max 1 µM)	0.203

Then this compound:
Exercise: Need combination Emax of Cc1c2c(nn1C)CSCc1cc(n(C)n1)CSc1cc(c3ccccc3c1)OCCCc1c(C(=O)O)n(C)c3c-2c(Cl)ccc13 [AZD5991] + CN(C)CCCOc1ccc(-c2ccc3ncc4c(c3c2)n(C2CCOCC2)c(=O)n4C)cn1 [AZD0156] (first compound max 1 µM, 7x7, partner max 1 µM) , thanks.
Solution: 0.196
